Tested on: CCRIS mutagenicity, Ames/micronucleus/aberration tests
Assay procedure: CCRIS mutagenicity studies
Test parameters: Test System: E. COLI; Strain/Indicator: WP2 (PKM101); Metabolic Activation: NONE; Method: STANDARD PLATE
Calls of active or inactive are those of the source. How the calls were made is not given here.
Permitted responses: 1.0 for active, 0.0 for inactive

// below: answered molecules
[
  {
    "Smiles record": "OO",
    "Tested target": "CCRIS mutagenicity, Ames/micronucleus/aberration tests",
    "Class name": 1.0
  },
  {
    "Smiles record": "c1cc[n+]2c(c1)-c1cccc[n+]1CC2",
    "Tested target": "CCRIS mutagenicity, Ames/micronucleus/aberration tests",
    "Class name": 0.0
  },
  {
    "Smiles record": "CC1=CC(=O)c2ccccc2C1=O",
    "Tested target": "CCRIS mutagenicity, Ames/micronucleus/aberration tests",
    "Class name": 0.0
  },
  {
    "Smiles record": "CC[n+]1c2ccccc2nc2ccccc21",
    "Tested target": "CCRIS mutagenicity, Ames/micronucleus/aberration tests",
    "Class name": 0.0
  },
  {
    "Smiles record": "COC(=O)C(C)(C)Oc1ccc(-c2ccc(Cl)cc2)cc1",
    "Tested target": "CCRIS mutagenicity, Ames/micronucleus/aberration tests",
    "Class name": 0.0
  }
]

Could you now consider this next molecule?
Query string: GET /call?item= COC1=C(N)C(=O)c2nc(-c3nc(C(=O)O)c(C)c(-c4ccc(OC)c(OC)c4O)c3N)ccc2C1=O returns the recorded outcome of this test.
Result string: 1.0

###

System: CCRIS mutagenicity, Ames/micronucleus/aberration tests
Assay procedure: CCRIS mutagenicity studies
Test parameters: Test System: AMES SALMONELLA TYPHIMURIUM; Strain/Indicator: TA98; Metabolic Activation: HAMSTER, LIVER, S-9, AROCLOR 1254; Method: STANDARD PLATE
The source made the active and inactive calls. How the calls were made is not given here.
Reply using exactly one outcome from TRUE for active, FALSE for inactive

[
  {
    "Compound": "CCCCC/C=C/C=C/C=O",
    "Class name": "FALSE"
  },
  {
    "Compound": "O=C1C=CC(=O)N1",
    "Class name": "TRUE"
  },
  {
    "Compound": "C/C=C/c1ccc(O)c(OC)c1",
    "Class name": "FALSE"
  },
  {
    "Compound": "O=C1Nc2ccc([N+](=O)[O-])cc2C1=O",
    "Class name": "TRUE"
  },
  {
    "Compound": "COc1ccc(-c2coc3cc(O)cc(O)c3c2=O)cc1",
    "Class name": "FALSE"
  },
  {
    "Compound": "CCOc1ccc(NC(C)=O)cc1N",
    "Class name": "TRUE"
  },
  {
    "Compound": "Oc1ccc2c(c1)OCO2",
    "Class name": "FALSE"
  },
  {
    "Compound": "COc1cc(-c2ccc(N=C=O)c(OC)c2)ccc1N=C=O",
    "Class name": "TRUE"
  }
]

Query string: Per the assay record, what outcome was assigned to CCCC(O)C(CC)CO (stereo not drawn) ?
Result string: FALSE

Query string: Tell me the recorded outcome of this test for C=C(C)C(=O)OCC(CC)(COC(=O)C(=C)C)COC(=O)C(=C)C .
Result string: FALSE

Query string: Name the outcome recorded for O=C1N=NC(=O)C2C=CC=CC12 (stereo not drawn) in the assay.
Result string: FALSE

###

System: CCRIS mutagenicity, Ames/micronucleus/aberration tests
Assay procedure: CCRIS mutagenicity studies
Test parameters: Test System: AMES SALMONELLA TYPHIMURIUM; Strain/Indicator: TA98; Metabolic Activation: RAT, LIVER, S-9, AROCLOR 1254
Activity calls are given as the source filed them. The rule behind the calls is not given here.
In this exercise, the only acceptable responses are T = active, F = inactive

As a guide, the following entries are already answered.
[
  {
    "Compound": "O=[N+]([O-])c1ccc2c(c1)CCc1cc3c(cc1-2)CCCC3",
    "Class name": "T"
  },
  {
    "Compound": "NC(=O)CN1CC(O)CC1=O (stereo not drawn)",
    "Class name": "F"
  }
]

Query string: Answer briefly: the call reported for Oc1cc(Cl)c(Cl)cc1Cl in this assay.
Result string: F

Query string: Field: outcome | Entry: CNC(=O)CN(CCN(CCN(CC(=O)O)CC(=O)NC)CC(=O)O)CC(=O)O
Result string: F

Query string: Record lookup: outcome of this test for COc1cccc2c1C(=O)c1c(O)c3c(c(O)c1C2=O)C[C@@](O)(C(=O)CO)CC3O[C@H]1C[C@H](N(C)C)[C@H](O)[C@H](C)O1 (stereo partly drawn) ?
Result string: F

Query string: Just curious, what result did FC(F)(F)C(F)(F)C(F)(F)C(F)(F)I get here?
Result string: F

Query string: Test call for this compound, please: O=[N+]([O-])c1ccc2c(ccc3c4ccccc4ccc23)c1
Result string: T

Query string: What did this assay record as the result for CCSC(=O)N1CCCCCC1 ?
Result string: F

###

Test system: CCRIS mutagenicity, Ames/micronucleus/aberration tests
Assay procedure: CCRIS mutagenicity studies
Test parameters: Test System: AMES SALMONELLA TYPHIMURIUM; Strain/Indicator: TA98; Metabolic Activation: HAMSTER, LIVER, S-9, AROCLOR 1254 (30%); Method: PREINCUBATION
Text: The CCRIS database contains chemical records with carcinogenicity, mutagenicity, tumor promotion, and tumor inhibition test results. It was developed by the National Cancer Institute (NCI). Data are derived from studies cited in primary journals, current awareness tools, NCI reports, and other sources. Test results have been reviewed by experts in carcinogenesis and mutagenesis. CCRIS provides historical information from the years 1985 - 2011. It is no longer updated. […]
Active and inactive are the calls of the source. No rule for the calls is given here.
Outcome field: choose from class 1 for active, class 0 for inactive

[
  {
    "Molecule": "S=C=Nc1cccc2ccccc12",
    "Class name": "class 0"
  },
  {
    "Molecule": "Clc1nc(Cl)nc(Nc2ccccc2Cl)n1",
    "Class name": "class 0"
  },
  {
    "Molecule": "C=CC(C)=O",
    "Class name": "class 0"
  },
  {
    "Molecule": "c1cc2c3c(cccc3c1)CC2",
    "Class name": "class 0"
  },
  {
    "Molecule": "c1ccc(CSCc2ccccc2)cc1",
    "Class name": "class 0"
  },
  {
    "Molecule": "Nc1ccc(Cl)cc1Cl",
    "Class name": "class 0"
  },
  {
    "Molecule": "O=c1n(CC2CO2)c(=O)n(CC2CO2)c(=O)n1CC1CO1 (stereo not given)",
    "Class name": "class 1"
  },
  {
    "Molecule": "NO",
    "Class name": "class 0"
  }
]

Query string: Per the assay record, what outcome was assigned to O=C(O)C1=NN(c2ccc(S(=O)(=O)O)cc2)C(=O)C1N=Nc1ccc(S(=O)(=O)O)cc1.[Al] (stereo not given) ?
Result string: class 0

Query string: Hey, what did the test say about CCCCCc1cc(O)cc(O)c1 ?
Result string: class 0

Query string: // param item: ClC(Cl)c1ccccc1 ; yields the recorded call
Result string: class 0

Query string: Given CCCC(=O)Cl , state the outcome it received in this test.
Result string: class 0

Query string: Which outcome did this test record for the molecule CCCCCCCCCCCCC/C([O-])=N/[N+](C)(C)CC(C)O (stereo not given) ?
Result string: class 0

Query string: Write down the call the test reported for this molecule. Item: OCC(O)CI (stereo not given)
Result string: class 0

Query string: What outcome does the record of this test show for ClC(Cl)(Cl)Cl ?
Result string: class 0

###

Tested on: CCRIS mutagenicity, Ames/micronucleus/aberration tests
Assay procedure: CCRIS mutagenicity studies
Test parameters: Test System: AMES SALMONELLA TYPHIMURIUM; Strain/Indicator: TA1535; Metabolic Activation: HAMSTER, LIVER, S-9, AROCLOR 1254 (10%); Method: PREINCUBATION
Calls of active or inactive are those of the source. No rule for the calls is given here.
// classify into TRUE = active, FALSE = inactive

[
  {
    "Compound": "Nc1cc([N+](=O)[O-])ccc1O",
    "Tested target": "CCRIS mutagenicity, Ames/micronucleus/aberration tests",
    "Class name": "FALSE"
  },
  {
    "Compound": "O=C(O)CCC(=O)OC[C@@H](NC(=O)C(Cl)Cl)[C@H](O)c1ccc([N+](=O)[O-])cc1",
    "Tested target": "CCRIS mutagenicity, Ames/micronucleus/aberration tests",
    "Class name": "FALSE"
  },
  {
    "Compound": "Nc1ccc(C(=O)O)cc1",
    "Tested target": "CCRIS mutagenicity, Ames/micronucleus/aberration tests",
    "Class name": "FALSE"
  },
  {
    "Compound": "c1cc2c3c(cccc3c1)CC2",
    "Tested target": "CCRIS mutagenicity, Ames/micronucleus/aberration tests",
    "Class name": "FALSE"
  },
  {
    "Compound": "CC(CCN(C)C)N(C)C (stereo not drawn)",
    "Tested target": "CCRIS mutagenicity, Ames/micronucleus/aberration tests",
    "Class name": "FALSE"
  },
  {
    "Compound": "Oc1cccc(O)c1",
    "Tested target": "CCRIS mutagenicity, Ames/micronucleus/aberration tests",
    "Class name": "FALSE"
  }
]

Next:
Query string: Query: recorded result category for COc1c(Cl)c(Cl)c(Cl)c(Cl)c1Cl in this test
Result string: FALSE
